- system name: T1, human galectin-10-His (recombinant human galectin-10 with TEV-cleavable N-terminal His-tag) (human)
- T1 construct: SEC-MALLS: dimer in solution; also called Gal10-His; humanGal10-His
- T1 chain: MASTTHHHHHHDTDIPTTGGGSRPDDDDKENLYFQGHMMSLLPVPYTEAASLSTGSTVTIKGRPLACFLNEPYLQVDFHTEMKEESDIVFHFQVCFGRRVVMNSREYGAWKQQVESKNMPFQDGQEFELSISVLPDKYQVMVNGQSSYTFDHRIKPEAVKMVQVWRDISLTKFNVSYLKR
- method description: SPR Biacore T3000, mouse IgG1 captured by anti-mouse Fc, galectin-10-His as analyte
readout name: koff (s⁻¹)
Write the answer as a number in s⁻¹, unit excluded.

- binder: "2F09 mouse IgG1 (antibody, V domains shown, VH on mouse IgG1 heavy chain constant domains (CH1-CH2-CH3), VL on mouse lambda light chain constant domain; also called 2F09 mIgG1) VH: QVQVQESGPGLVKPSQTLSLTCTVSGGSITTNYFYWSWIRQSPGKGLEWIGAIAYSGRTYYSPSLKSRTSISRDTSNNQFTLQLSSVTPEDTAVYYCARGPKGLASYYDYWGQGTQVTVSS VL: SSALTQPSAVSVSLGQTARITCQGGNFGYYYVSWYQQKPGQAPVLVIYRDSGRPSGIPERFSGSSSGDTATLTISGAQAEDEADYYCQSGSSSDNTVFGGGTHLTVL"
  koff [s⁻¹]: 0.00034

Consider the additional binder presented here.
# binder 4E08 mouse IgG1 (antibody, V domains shown, VH on mouse IgG1 heavy chain constant domains (CH1-CH2-CH3), VL on mouse lambda light chain constant domain; also called 4E8; 4E08 mIgG1) VH: QVQRQESGPGLVKPSQTLSLTCTVSGGSITTSYYAWSWIRQPPGKGLEWMGVIASDGSTYYSPSLKSRTSISRDTSKNQFSLQLSSVTPEDTAVYYCALYIRGSSWSGWSAYDYWGQGTQVTVSS VL: QPVLNQPSAVSVSLGQTARITCQGGNFGYYYGSWYQQKPGQAPVLVIYKDSERPSGIPERFSGSSSGGTATLTISRAQAEDEADYYCQSADSSDNPVFGGGTHLTVL ; its koff = 0.00085
